- target-or-system: Gonadotropin-releasing hormone receptor (Rattus norvegicus)
- assay-protocol: Inhibition of binding of radiolabeled histrelin to Gonadotropin-releasing hormone receptor (GnRHr) in rat pituitary gland membranes
recorded-metric: pIC50
Quick note: pIC50 values are minus log10 of concentrations in mol/L.

The compound listed as CC(=O)Nc1ccc(C[C@H](NC(=O)[C@@H](NC(=O)[C@@H](Cc2cccnc2)NC(=O)[C@@H](Cc2ccc(Cl)cc2)NC(=O)[C@@H](Cc2ccc3ccccc3c2)NC(C)=O)N(C)C=O)C(=O)N[C@H](Cc2ccc(NC(C)=O)cc2)C(=O)N[C@@H](CC(C)C)C(=O)N[C@@H](CCCCNC(C)C)C(=O)N2CCC[C@H]2C(=O)N[C@H](C)C(N)=O)cc1 (single isomer, unassigned) shows pIC50 equal to 8.26

###

- target-or-system: Gonadotropin-releasing hormone receptor (Rattus norvegicus, UniProt P30969)
- Sequence (P30969 whole entry): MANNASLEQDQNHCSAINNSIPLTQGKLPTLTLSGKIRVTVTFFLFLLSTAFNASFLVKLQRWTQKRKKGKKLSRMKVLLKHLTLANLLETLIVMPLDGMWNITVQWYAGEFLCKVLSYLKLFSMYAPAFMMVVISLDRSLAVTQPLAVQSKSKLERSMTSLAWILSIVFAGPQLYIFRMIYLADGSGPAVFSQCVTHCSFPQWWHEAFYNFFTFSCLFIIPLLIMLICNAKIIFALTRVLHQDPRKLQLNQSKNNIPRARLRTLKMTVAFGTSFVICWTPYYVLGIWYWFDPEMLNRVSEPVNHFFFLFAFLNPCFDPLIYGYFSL
- assay-protocol: Inhibition of binding of radiolabeled histrelin to Gonadotropin-releasing hormone receptor (GnRHr) in rat pituitary gland membranes
recorded-metric: pIC50
Quick note: pIC50 values are minus log10 of concentrations in mol/L.

Recorded results for 2 molecules are shown here.
CC(=O)Nc1ccc(C[C@H](NC(=O)[C@H](CO)NC(=O)[C@@H](Cc2cccnc2)NC(=O)[C@@H](Cc2ccc(Cl)cc2)NC(=O)[C@@H](NC(C)=O)NC(=O)c2ccc3ccccc3c2)C(=O)N[C@H](Cc2ccc(NC(C)=O)cc2)C(=O)N[C@@H](CC(C)C)C(=O)N[C@@H](CCCCNC(C)C)C(=O)N2CCC[C@H]2C(=O)N[C@H](C)C(N)=O)cc1: 8.52
CC(=O)Nc1ccc(C[C@H](NC(=O)[C@H](CO)NC(=O)[C@@H](Cc2cccnc2)NC(=O)[C@@H](Cc2ccc(Cl)cc2)NC(=O)[C@@H](Cc2ccc3ccccc3c2)NC(C)=O)C(=O)N[C@H](C(=O)N[C@@H](CC(C)C)C(=O)N[C@@H](CCCCNC(C)C)C(=O)N2CCC[C@H]2C(=O)N[C@H](C)C(N)=O)N(C)C(=O)c2ccc(NC(C)=O)cc2)cc1 (mixture of isomers): 8.28

Kindly review the next molecule as well.
The molecule listed as CC(=O)Nc1ccc(C[C@H](NC(=O)[C@H](CO)NC(=O)[C@@H](Cc2cccnc2)NC(=O)[C@@H](Cc2ccc(Cl)cc2)NC(=O)[C@H](Cc2ccc3ccccc3c2)NC(C)=O)C(=O)N[C@H](Cc2ccc(NC(C)=O)cc2)C(=O)N[C@@H](CC(C)C)C(=O)N[C@@H](CCCCNC(C)C)C(=O)N2CCC[C@H]2C(=O)N[C@H](C)C(N)=O)cc1 shows pIC50 equal to 9.19

Where do the numbers come from? From ChEMBL document CHEMBL1130231.
